Origin of measurements: BindingDB's records for patent US20240150293

- System Tested: Induced myeloid leukemia cell differentiation protein Mcl-1 [C286S] (Homo sapiens, UniProt Q07820, C286S)
- Sequence (Q07820 whole entry C286S, looked up): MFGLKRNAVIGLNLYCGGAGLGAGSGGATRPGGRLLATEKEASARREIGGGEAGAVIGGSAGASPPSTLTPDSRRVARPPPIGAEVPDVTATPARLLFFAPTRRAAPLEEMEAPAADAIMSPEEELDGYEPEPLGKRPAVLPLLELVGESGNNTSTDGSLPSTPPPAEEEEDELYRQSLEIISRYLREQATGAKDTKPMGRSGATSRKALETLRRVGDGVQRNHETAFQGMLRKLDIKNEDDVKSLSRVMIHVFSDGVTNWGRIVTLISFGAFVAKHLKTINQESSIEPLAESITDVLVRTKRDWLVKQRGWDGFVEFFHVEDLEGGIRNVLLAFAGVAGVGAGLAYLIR
- Test Name: Method B: Inhibition of Mcl-1 by the Fluorescence Quenching Assay
Property Measured: Ki (nM)

- Molecule: "CCC1CC(O)c2nccc(OC[C@H](C)C[C@H]3Cc4ccccc4[C@]34CC[C@@](Nc3cccc(Cl)c3)(C(=O)O)CC4)c21 (stereo partly drawn) [US20240150293, Example 624]"
  Recorded Value: 4.48

[A] C[C@@H](COc1ccnc2[nH]ccc12)C[C@H]1Cc2ccccc2[C@]12CC[C@@](Nc1cccc(Cl)c1)(C(=O)O)CC2 [US20240150293, Example 626]
[B] C[C@@H](COc1cccc2ncsc12)C[C@H]1Cc2ccccc2[C@]12CC[C@@](Nc1cccc(Cl)c1)(C(=O)O)CC2 [US20240150293, Example 625]
Query :: Compare Ki: is it lower for A or for B ? Please respond with the label that marks your chosen entry.
Result :: A
(A: 3.91 nM, B: 37.7 nM)
